test system: HepG2; test: Cytotoxicity against human HepG2 cells after 2 to 4 days by neutral red dye uptake assay; assay type: cell-based
metric.name: CC50

compound="CCOC(=O)CCc1ccccc1OP(=O)(N[C@@H](C)C(=O)OCC)OC[C@@H]1OC[C@H](n2cnc3c(N)ncnc32)O1 (stereo not given in full)" metric_name=CC50 endpoint_result="> 100 µM"
compound="CCOC(=O)[C@H](C)NP(=O)(OC[C@@H]1OC[C@H](n2cnc3c(NC4CC4)ncnc32)O1)Oc1ccccc1 (stereo not given in full)" metric_name=CC50 endpoint_result="> 100 µM"
compound="CCOC(=O)CCc1ccccc1OP(=O)(N[C@@H](C)C(=O)OCC)OC[C@@H]1OC[C@H](n2cnc3c(OC)ncnc32)O1 (stereo not given in full)" metric_name=CC50 endpoint_result="> 100 µM"
compound=Nc1nc(N)c2ncn([C@H]3CO[C@@H](CO)O3)c2n1 metric_name=CC50 endpoint_result="> 100 µM"
compound="COc1ncnc2c1ncn2[C@H]1CO[C@@H](COP(=O)(N[C@@H](C)C(=O)OC(C)C)Oc2ccccc2CCC(=O)OC(C)C)O1 (stereo not given in full)" metric_name=CC50 endpoint_result="> 100 µM"
compound="CCOC(=O)[C@H](C)NP(=O)(OC[C@@H]1OC[C@H](n2cnc3c(N)ncnc32)O1)Oc1ccccc1 (stereo not given in full)" metric_name=CC50 endpoint_result="> 100 µM"
compound=OC[C@@H]1OC[C@H](n2cnc3c(NC4CC4)ncnc32)O1 metric_name=CC50 endpoint_result="> 100 µM"
compound="CC(C)OC(=O)CCc1ccccc1OP(=O)(N[C@@H](C)C(=O)OC(C)C)OC[C@@H]1OC[C@H](n2cnc3c(NC4CC4)ncnc32)O1 (stereo not given in full)" metric_name=CC50 endpoint_result="> 100 µM"
compound="CCOC(=O)CCc1ccccc1OP(=O)(N[C@@H](C)C(=O)OCC)OC[C@@H]1OC[C@H](n2cnc3c(NC4CC4)ncnc32)O1 (stereo not given in full)" metric_name=CC50 endpoint_result="> 100 µM"
compound="CCOC(=O)[C@H](C)NP(=O)(OC[C@@H]1OC[C@H](n2cnc3c(OC)ncnc32)O1)Oc1ccccc1 (stereo not given in full)" metric_name=CC50 endpoint_result="> 100 µM"
